Biological target: β1 -receptors (Felis catus)
Construct: tested on anesthetized cats; from tissue; host or cells: living anesthetized cat, heart (heart rate)
Sequence (Q9TST6 whole entry): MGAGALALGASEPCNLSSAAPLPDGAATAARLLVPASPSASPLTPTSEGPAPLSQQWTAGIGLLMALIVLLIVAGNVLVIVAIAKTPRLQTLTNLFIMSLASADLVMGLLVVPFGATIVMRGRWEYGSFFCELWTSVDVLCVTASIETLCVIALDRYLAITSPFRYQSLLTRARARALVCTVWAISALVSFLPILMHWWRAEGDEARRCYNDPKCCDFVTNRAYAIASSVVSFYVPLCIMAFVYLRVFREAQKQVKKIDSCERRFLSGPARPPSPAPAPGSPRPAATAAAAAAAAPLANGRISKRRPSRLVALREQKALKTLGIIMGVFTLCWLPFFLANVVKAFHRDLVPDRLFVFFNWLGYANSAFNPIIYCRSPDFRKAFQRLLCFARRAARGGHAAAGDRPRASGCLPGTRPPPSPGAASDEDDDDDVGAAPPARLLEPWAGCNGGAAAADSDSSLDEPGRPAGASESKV
Assay: β1-blocking activity: antagonism to tachycardia provoked by N-isopropyl-noradrenalin sulfate in anesthetized cats
Assay type: in vivo
Conditions: cat, iv, d(+)-isomers, tachycardia by 1.0 γ/kg i.v. N-isopropyl-noradrenalin sulfate (Table III), read-out: Blocking Action on β1 -receptors ED50
Structures can show the parent of a compound that is named as a salt.
Below, each entry is listed alongside its reported ED50.

# compound, ED50, µg/kg
rows = [
    ("CC(C)(C)NCC(O)c1cc(F)c(N)c(Br)c1 (single isomer, unassigned) [A-d(+), hydrochloride]", 8.4),
    ("CC(C)(C)NCC(O)c1ccc(N)c(F)c1 (single isomer, unassigned) [E-d(+), hydrochloride]", 1.5),
    ("CC(C)(C)NCC(O)c1cc(Cl)c(N)c(C(F)(F)F)c1 (single isomer, unassigned) [G-d(+)]", 12.5),
    ("CC(C)(C)NCC(O)c1cc(F)c(N)c(Cl)c1 (single isomer, unassigned) [D-d(+)]", 6.2),
]
